- TARGET UNDER TEST: human ABHD6 (Homo sapiens, UniProt Q9BV23)
- Sequence (Q9BV23 whole entry, the tested form may be a part): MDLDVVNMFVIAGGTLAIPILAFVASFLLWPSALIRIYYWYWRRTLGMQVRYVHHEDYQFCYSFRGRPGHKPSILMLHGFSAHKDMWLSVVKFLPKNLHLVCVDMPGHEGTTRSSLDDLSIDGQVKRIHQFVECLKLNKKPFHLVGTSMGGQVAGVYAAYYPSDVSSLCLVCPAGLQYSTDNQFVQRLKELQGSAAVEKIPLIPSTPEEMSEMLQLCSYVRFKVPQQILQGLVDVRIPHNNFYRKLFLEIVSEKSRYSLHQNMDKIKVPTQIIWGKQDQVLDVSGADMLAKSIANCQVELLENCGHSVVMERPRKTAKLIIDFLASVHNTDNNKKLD
- TEST DETAILS: Measurement of binding affinity for human ABHD6 (BRET, HEK293 cells expressing NanoLuc-human ABHD6 fusion protein)
- CONDITION LABEL: fluorescent probe 100 nmol/L
Here the recorded pIC50 is given for each entry.
Note on pIC50: it is the negative log10 of concentration, concentration in mol/L.

Cn1ncc2cc(C(=O)N3C[C@@H]4CC[C@@H](Oc5ccc(Br)nn5)[C@@H]4C3)sc21: 8.40
COC(=O)N1CCc2sc(C(=O)N3C[C@@H]4CC[C@@H](Oc5ccc(Br)nn5)[C@@H]4C3)cc2C1: 8.30
COc1cc(Cl)nnc1O[C@@H]1CC[C@H]2CN(C(=O)c3cc4c(s3)CCOC4)C[C@H]21: 8.05
Cc1ccc(C(=O)N2C[C@@H]3CC[C@@H](Oc4ccc(Br)nn4)[C@@H]3C2)s1: 7.96
O=C(c1cc2c(s1)CCOC2)N1C[C@@H]2C[C@H](F)[C@@H](Oc3ccc(Br)nn3)[C@@H]2C1: 8.70

Give pIC50 for this entry on human ABHD6 (Homo sapiens, UniProt Q9BV23): O=C(c1ccc(OCCF)s1)N1C[C@@H]2CC[C@@H](Oc3ccc(Br)nn3)[C@@H]2C1
8.00

Report pIC50 under test system human ABHD6 (Homo sapiens, UniProt Q9BV23) for O=C(c1cc2nn(C3CC3)cc2s1)N1C[C@@H]2CC[C@@H](Oc3ccc(Br)nn3)[C@@H]2C1 .
8.40
